Cited source for all entries: ChEMBL document CHEMBL5365442

# Test system: BXPC-3
# ASSAY OVERVIEW: Antiproliferative activity against human BXPC-3 cells assessed as inhibition of cell growth incubated for 48 hrs by WST-1 assay
# Assay type: functional, cell-based
# SETUP CONDITIONS: BXPC-3, 48 h
QUANTITY MEASURED: pIC50
Numbers only, as −log10 of the molar value.

{"MOLECULE": "Nc1ccn([C@@H]2O[C@H](CO)[C@@H](O)C2(F)F)c(=O)n1", "RECORDED MEASUREMENT": 5.17}
{"MOLECULE": "COc1ccc(OCC(O)CO)c(C(=O)/C=C/c2cccc(OC)c2OC)c1 (stereo not drawn)", "RECORDED MEASUREMENT": 4.93}

Q. Param item = COc1ccc(O)c(C(=O)/C=C/c2cccc(OC)c2OC)c1 ; retrieve measured pIC50.
A. 4.57
